# conditionDetails: in ethanol, 306.15 K
measuredParameter: solubility (mole fraction)
In your answer, state the number alone without any accompanying words.

State, in one line, measured solubility (mole fraction) of `C[C@@H]1CC[C@@]2(OC1)O[C@H]1C[C@H]3[C@@H]4CC=C5C[C@@H](O)CC[C@]5(C)[C@H]4CC[C@]3(C)[C@H]1[C@@H]2C`
0.00153

====

# conditionDetails: in isopropanol, 296.65 K
measuredParameter: solubility (mole fraction)
In your answer, state the number alone without any accompanying words.

State, in one line, measured solubility (mole fraction) of `C[C@@H]1CC[C@@]2(OC1)O[C@H]1C[C@H]3[C@@H]4CC=C5C[C@@H](O)CC[C@]5(C)[C@H]4CC[C@]3(C)[C@H]1[C@@H]2C`
0.000975
